The values you see were collected from paper PMC5540273.

Test system: MKNK1;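 further: KINOMEscan kinase panel screen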
Conditions: concentration: 1 μM, replicates: in singlicate; n = 1
Metric: %Inh (%)

- Smiles: "COC(=O)Nc1nc2cc(Oc3ccc(NC(=O)Nc4cc(F)ccc4F)cc3)ccc2[nH]1.Cl"
  Metric: "%Inh"
  Measurement Units: "%"
  Result: 23
- Smiles: "Fc1ccc(-c2nn3c(OCC(F)(F)F)cccc3c2-c2ccncc2)cc1"
  Metric: "%Inh"
  Measurement Units: "%"
  Result: 0
- Smiles: "Cl.Cl.Cl.Fc1ccc(-c2ncn(C3CCNCC3)c2-c2ccnc(Nc3ccccc3)n2)cc1"
  Metric: "%Inh"
  Measurement Units: "%"
  Result: 0
- Smiles: "COc1cc2c(cc1OC[C@@H](O)CO)ncc1c3ccc(C#N)cc3[nH]c21"
  Metric: "%Inh"
  Measurement Units: "%"
  Result: 97.1
